Entries and their measured chemical recovery follow.
MEASUREMENT NOTES: chemical recovery from spiked human plasma; higher = better extraction
CONDITION NOTES: pooled human plasma; extraction method: solvent precipitation (ACN + hexane)
The reply should be a number in %, with the unit left off.

Could you please provide reported chemical recovery for `O=C(O)c1cccc(C(=O)O)c1` ? Thanks!
12.5

Could you please provide reported chemical recovery for `O=C(O)C(F)(F)C(F)(F)C(F)(F)C(F)(F)C(F)(F)C(F)(F)F` ? Thanks!
85.3

Could you please provide reported chemical recovery for `Cc1cc(Cl)ccc1OCC(=O)O` ? Thanks!
71.8

Could you please provide reported chemical recovery for `COc1ccc(C(c2ccc(OC)cc2)C(Cl)Cl)cc1` ? Thanks!
33.1

More entries:
Could you please provide reported chemical recovery for CCCCC(CC)COP(=O)(O)OCC(CC)CCCC (stereo not given) [Bis(2-ethylhexyl)phosphate] ? Thanks!
52.8

====

MEASUREMENT NOTES: chemical recovery from spiked human plasma; higher = better extraction
CONDITION NOTES: pooled human plasma; extraction method: SPE only (HLB 96-well)
METRIC: chemical recovery (%)
The reply should be a number in %, with the unit left off.

Could you please provide reported chemical recovery for CC(C1=C(CCN(C)C)Cc2ccccc21)c1ccccn1 (stereo not given) ? Thanks!
24.1

More entries:
Could you please provide reported chemical recovery for `Nc1ccc(S(=O)(=O)Nc2nccs2)cc1` ? Thanks!
31.1

Could you please provide reported chemical recovery for CC(C)C1CCC(Cc2ccc(Cl)cc2)C1(O)Cn1cncn1 (stereo not given) ? Thanks!
45.5

Could you please provide reported chemical recovery for CCCCC(CC)COP(=O)(OCC(CC)CCCC)OCC(CC)CCCC (stereo not given) [Tris(2-ethylhexl)phosphate] ? Thanks!
6.76

Could you please provide reported chemical recovery for `CNC(=O)Oc1cc(C)c(SC)c(C)c1` ? Thanks!
32.8

====

MEASUREMENT NOTES: chemical recovery from spiked human plasma; higher = better extraction
CONDITION NOTES: pooled human plasma; extraction method: SPE only (HLB 96-well)
METRIC: chemical recovery (%)
The reply should be a number in %, with the unit left off.

For orientation, consider the following solved cases.
Could you please provide reported chemical recovery for O=C(CC(C(=O)OC1CCCCC1)S(=O)(=O)O)OC1CCCCC1 (configuration not stated) [Dicyclohexyl-sulfosuccinate] ? Thanks!
44.3

Could you please provide reported chemical recovery for Cc1ccccc1N [o-Toluidine] ? Thanks!
6.06

Could you please provide reported chemical recovery for Cc1c(Cl)cccc1Nc1ccccc1C(=O)O [Tolfenamic-acid] ? Thanks!
36.5

Could you please provide reported chemical recovery for COP(=O)(OC)OC [Trimethylphosphate] ? Thanks!
3.11

Could you please provide reported chemical recovery for COCCOCCO [Diethyleneglycolmonomethylether] ? Thanks!
1.78

Could you please provide reported chemical recovery for CCCSP(=O)(OCC)Oc1ccc(Br)cc1Cl (configuration not stated) [Profenofos] ? Thanks!
39.9

Could you please provide reported chemical recovery for CCCCNc1ccc(C(=O)OCCN(C)C)cc1 [Tetracain] ? Thanks!
2.67

Could you please provide reported chemical recovery for Oc1c(Br)cc(Br)cc1Br [2,4,6-Tribromophenol] ? Thanks!
35

More entries:
Could you please provide reported chemical recovery for Nc1cccc2cc(S(=O)(=O)O)ccc12 [5-Aminonaphthalene-2-sulfonic acid] ? Thanks!
10.5

Could you please provide reported chemical recovery for CCCN(CC)CC1COC2(CCC(C(C)(C)C)CC2)O1 (configuration not stated) [Spiroxamine] ? Thanks!
47.5

Could you please provide reported chemical recovery for COCCOCCOCCOC [Triglyme] ? Thanks!
24.9

Could you please provide reported chemical recovery for COc1cc(-c2ccc(N)c(OC)c2)ccc1N [o-Dianisidine] ? Thanks!
15.5

Could you please provide reported chemical recovery for CC[C@@H](C(N)=O)N1CCCC1=O [Levetiracetam] ? Thanks!
21.4

Could you please provide reported chemical recovery for Cc1cccc(C)c1N(Cn1cccn1)C(=O)CO [Metazachlor-2-hydroxy] ? Thanks!
40.1

Could you please provide reported chemical recovery for COC(=O)c1cc(C(=O)OC)cc(S(=O)(=O)O)c1 [Dimethyl-5-sulfoisophthalate] ? Thanks!
45.3

Could you please provide reported chemical recovery for Cc1cccc2cc3ccccc3cc12 [1-Methylanthracene] ? Thanks!
4.65

Could you please provide reported chemical recovery for CCCOP(=O)(OCCC)OCCC [Tripropyl phosphate] ? Thanks!
35

Could you please provide reported chemical recovery for S=C1NCCN1 [Ethylenethiourea] ? Thanks!
0.261

Could you please provide reported chemical recovery for O=C1Cc2cc(CCN3CCN(c4nsc5ccccc45)CC3)c(Cl)cc2N1 [Ziprasidone] ? Thanks!
38.7

Could you please provide reported chemical recovery for Clc1cccc(Cl)c1NC1=NCCN1 [Clonidine] ? Thanks!
41.2
